- PROCEDURE_TEXT: total protein half-life in vivo (active degradation + dilution); higher = more stable protein
- MEASUREMENT_SETUP: E. coli NCM3722 delta-clpP delta-lon delta-hslV; growth: N-lim chemostat; doubling time 6 h
OBSERVATION_TYPE: total protein half-life in vivo (h)
Give bare numbers, in h.

[[record]]
seq_string = "MSKVCIIAWVYGRVQGVGFRYTTQYEAKRLGLTGYAKNLDDGSVEVVACGEEGQVEKLMQWLKSGGPRSARVERVLSEPHHPSGELTDFRIR [P0AB65]"
observation_type = "total protein half-life in vivo"
measured_number = 6.07

[[record]]
seq_string = "MEQLRAELSHLLGEKLSRIECVNEKADTALWALYDSQGNPMPLMARSFSTPGKARQLAWKTTMLARSGTVRMPTIYGVMTHEEHPGPDVLLLERMRGVSVEAPARTPERWEQLKDQIVEALLAWHRQDSRGCVGAVDNTQENFWPSWYRQHVEVLWTTLNQFNNTGLTMQDKRILFRTRECLPALFEGFNDNCVLIHGNFCLRSMLKDSRSDQLLAMVGPGLMLWAPREYELFRLMDNSLAEDLLWSYLQRAPVAESFIWRRWLYVLWDEVAQLVNTGRFSRRNFDLASKSLLPWLA [P0AB03]"
observation_type = "total protein half-life in vivo"
measured_number = 5.11


Now consider the entry below.
Form field: reported total protein half-life in vivo of MLIIETLPLLRQQIRRLRMEGKRVALVPTMGNLHDGHMKLVDEAKARADVVVVSIFVNPMQFDRPEDLARYPRTLQEDCEKLNKRKVDLVFAPSVKEIYPNGTETHTYVDVPGLSTMLEGASRPGHFRGVSTIVSKLFNLVQPDIACFGEKDFQQLALIRKMVADMGFDIEIVGVPIMRAKDGLALSSRNGYLTAEQRKIAPGLYKVLSSIADKLQAGERDLDEIITIAGQELNEKGFRADDIQIRDADTLLEVSETSKRAVILVAAWLGDARLIDNKMVELA
5.42

----------
For each entry below, report its total protein half-life in vivo value.
- PROCEDURE_TEXT: total protein half-life in vivo (active degradation + dilution); higher = more stable protein
- MEASUREMENT_SETUP: E. coli NCM3722 delta-clpP; growth: N-lim chemostat; doubling time 6 h
Answers are plain numbers, in h.

[[record]]
seq_string = "MSAVLTAEQALKLVGEMFVYHMPFNRALGMELERYEKEFAQLAFKNQPMMVGNWAQSILHGGVIASALDVAAGLVCVGSTLTRHETISEDELRQRLSRMGTIDLRVDYLRPGRGERFTATSSLLRAGNKVAVARVELHNEEQLYIASATATYMVG [P0ADP2]"
observation_type = "total protein half-life in vivo"
display_unit = "h"
measured_number = 2.3

[[record]]
seq_string = "MHQVVCATTNPAKIQAILQAFHEIFGEGSCHIASVAVESGVPEQPFGSEETRAGARNRVANARRLLPEADFWVAIEAGIDGDSTFSWVVIENASQRGEARSATLPLPAVILEKVREGEALGPVMSRYTGIDEIGRKEGAIGVFTAGKLTRASVYHQAVILALSPFHNAVY"
observation_type = "total protein half-life in vivo"
display_unit = "h"
measured_number = 3.83

[[record]]
seq_string = "MNKFEDIRGVAFDLDGTLVDSAPGLAAAVDMALYALELPVAGEERVITWIGNGADVLMERALTWARQERATQRKTMGKPPVDDDIPAEEQVRILRKLFDRYYGEVAEEGTFLFPHVADTLGALQAKGLPLGLVTNKPTPFVAPLLEALDIAKYFSVVIGGDDVQNKKPHPDPLLLVAERMGIAPQQMLFVGDSRNDIQAAKAAGCPSVGLTYGYNYGEAIDLSQPDVIYQSINDLLPALGLPHSENQESKND"
observation_type = "total protein half-life in vivo"
display_unit = "h"
measured_number = 3.12


// next item, total protein half-life in vivo requested
Item under review: MAMHLNENLDDNGEMHDINVTPFIDVMLVLLIIFMVAAPLATVDVKVNLPASTSTPQPRPEKPVYLSVKADNSMFIGNDPVTDETMITALNALTEGKKDTTIFFRADKTVDYETLMKVMDTLHQAGYLKIGLVGEETAKAK [P0ABV2] . Reported total protein half-life in vivo?
2.74

----------
Kindly supply the reported total protein half-life in vivo values for the records listed here.
- PROCEDURE_TEXT: total protein half-life in vivo (active degradation + dilution); higher = more stable protein
- MEASUREMENT_SETUP: E. coli NCM3722 delta-clpP delta-lon delta-hslV; growth: N-lim chemostat; doubling time 6 h
One number for each entry, in h.

Take a look at these entries with their results.
[[record]]
seq_string = "MNAEKSPVNHNVDHEEIAKFEAVASRWWDLEGEFKPLHRINPLRLGYIAERAGGLFGKKVLDVGCGGGILAESMAREGATVTGLDMGFEPLQVAKLHALESGIQVDYVQETVEEHAAKHAGQYDVVTCMEMLEHVPDPQSVVRACAQLVKPGGDVFFSTLNRNGKSWLMAVVGAEYILRMVPKGTHDVKKFIKPAELLGWVDQTSLKERHITGLHYNPITNTFKLGPGVDVNYMLHTQNK"
observation_type = "total protein half-life in vivo"
measured_number = 4.74

[[record]]
seq_string = "MILFVGFLLMEIVMPQISRTALVPYSAEQMYQLVNDVQSYPQFLPGCTGSRILESTPGQMTAAVDVSKAGISKTFTTRNQLTSNQSILMNLVDGPFKKLIGGWKFTPLSQEACRIEFHLDFEFTNKLIELAFGRVFKELAANMVQAFTVRAKEVYSAR [P0AGL5]"
observation_type = "total protein half-life in vivo"
measured_number = 0.854


Note: attention shifts to another entry.
Name the reported total protein half-life in vivo value associated with the sequence MTIAIVIGTHGWAAEQLLKTAEMLLGEQENVGWIDFVPGENAETLIEKYNAQLAKLDTTKGVLFLVDTWGGSPFNAASRIVVDKEHYEVIAGVNIPMLVETLMARDDDPSFDELVALAVETGREGVKALKAKPVEKAAPAPAAAAPKAAPTPAKPMGPNDYMVIGLARIDDRLIHGQVATRWTKETNVSRIIVVSDEVAADTVRKTLLTQVAPPGVTAHVVDVAKMIRVYNNPKYAGERVMLLFTNPTDVERLVEGGVKITSVNVGGMAFRQGKTQVNNAVSVDEKDIEAFKKLNARGIELEVRKVSTDPKLKMMDLISKIDK
6.3

----------
- PROCEDURE_TEXT: total protein half-life in vivo (active degradation + dilution); higher = more stable protein
- MEASUREMENT_SETUP: E. coli NCM3722 delta-hslV; growth: N-lim chemostat; doubling time 6 h
Answer each item with its documented total protein half-life in vivo.
Answers are plain numbers, in h.

Use the examples below as a reference point.
[[record]]
seq_string = "MNEFSILCRVLGSLYYRQPQDPLLVPLFTLIREGKLAANWPLEQDELLTRLQKSCDMTQVSADYNALFIGDECAVPPYRSAWVEGATEAEVRAFLSERGMPLADTPADHIGTLLLAASWLEDQSTEDESEALETLFSEYLLPWCGAFLGKVEAHATTPFWRTMAPLTRDAISAMWDELEEDSEE"
measured_number = 5.14

[[record]]
seq_string = "MANRMILNETAWFGRGAVGALTDEVKRRGYQKALIVTDKTLVQCGVVAKVTDKMDAAGLAWAIYDGVVPNPTITVVKEGLGVFQNSGADYLIAIGGGSPQDTCKAIGIISNNPEFADVRSLEGLSPTNKPSVPILAIPTTAGTAAEVTINYVITDEEKRRKFVCVDPHDIPQVAFIDADMMDGMPPALKAATGVDALTHAIEGYITRGAWALTDALHIKAIEIIAGALRGSVAGDKDAGEEMALGQYVAGMGFSNVGLGLVHGMAHPLGAFYNTPHGVANAILLPHVMRYNADFTGEKYRDIARVMGVKVEGMSLEEARNAAVEAVFALNRDVGIPPHLRDVGVRKEDIPALAQAALDDVCTGGNPREATLEDIVELYHTAW [P0A9S1]"
measured_number = 3.39


So what does the record say about total protein half-life in vivo for MSVRLVLAKGREKSLLRRHPWVFSGAVARMEGKASLGETIDIVDHQGKWLARGAYSPASQIRARVWTFDPSESIDIAFFSRRLQQAQKWRDWLAQKDGLDSYRLIAGESDGLPGITIDRFGNFLVLQLLSAGAEYQRAALISALQTLYPECSIYDRSDVAVRKKEGMELTQGPVTGELPPALLPIEEHGMKLLVDIQHGHKTGYYLDQRDSRLATRRYVENKRVLNCFSYTGGFAVSALMGGCSQVVSVDTSQEALDIARQNVELNKLDLSKAEFVRDDVFKLLRTYRDRGEKFDVIVMDPPKFVENKSQLMGACRGYKDINMLAIQLLNEGGILLTFSCSGLMTSDLFQKIIADAAIDAGRDVQFIEQFRQAADHPVIATYPEGLYLKGFACRVM ?
5.55

----------
- PROCEDURE_TEXT: total protein half-life in vivo (active degradation + dilution); higher = more stable protein
- MEASUREMENT_SETUP: E. coli NCM3722 delta-clpP; growth: N-lim chemostat; doubling time 6 h
The threshold is inclusive: total protein half-life in vivo of exactly 5 h counts as 1.0; values below receive 0.0.

Reference set, count: 5
[[record]]
seq_string = "MVKTQRVVITPGEPAGIGPDLVVQLAQREWPVELVVCADATLLTNRAAMLGLPLTLRPYSPNSPAQPQTAGTLTLLPVALRAPVTAGQLAVENGHYVVETLARACDGCLNGEFAALITGPVHKGVINDAGIPFTGHTEFFEERSQAKKVVMMLATEELRVALATTHLPLRDIADAITPALLHEVIAILHHDLRTKFGIAEPRILVCGLNPHAGEGGHMGTEEIDTIIPVLNELRAQGMKLNGPLPADTLFQPKYLDNADAVLAMYHDQGLPVLKYQGFGRGVNITLGLPFIRTSVDHGTALELAGRGKADVGSFITALNLAIKMIVNTQ"
group_label = 0.0

[[record]]
seq_string = "MQIIFGEKCVSLLRLFFAAVLMLWCAQTAAYSGQCHTTQGNPYIGVNFGVKTLEEEANTAGVVKDKFYQWNESNDYYVSCDCDKDNVRSGRWAFAADSPLVYLGDNWYKINDYLAAKVLLQVKGSSPTAVPFENVGTGGDTRWHICDPGGQRLGGQGASGNSGSFSLKILQPFVGSVVIPPMALARLYECYNIPAGDSCTTTGTPVLVYYLSGTINSLGSCSVNAGETIEVDLGDVFAANFRVVGHKPLGARTAELAIPVRCNTGNAGLVNVNLSLTATTDPSYPQAIKTSRPGVGVVVTDSQNNIISPAGGTLPLSIPDDADSIARMNVYPVSTTGVPPETGRFEATATVRINFD"
group_label = 0.0

[[record]]
seq_string = "METVAYADFARLEMRVGKIVEVKRHENADKLYIVQVDVGQKTLQTVTSLVPYYSEEELMGKTVVVLCNLQKAKMRGETSECMLLCAETDDGSESVLLTPERMMPAGVRVV"
group_label = 1.0

[[record]]
seq_string = "MRFIIRTVMLIALVWIGLLLSGYGVLIGSKENAAGLGLQCTYLTARGTSTVQYLHTKSGFLGITDCPLLRKSNIVVDNG [Q2MB16]"
group_label = 1.0

[[record]]
seq_string = "MEQLRAELSHLLGEKLSRIECVNEKADTALWALYDSQGNPMPLMARSFSTPGKARQLAWKTTMLARSGTVRMPTIYGVMTHEEHPGPDVLLLERMRGVSVEAPARTPERWEQLKDQIVEALLAWHRQDSRGCVGAVDNTQENFWPSWYRQHVEVLWTTLNQFNNTGLTMQDKRILFRTRECLPALFEGFNDNCVLIHGNFCLRSMLKDSRSDQLLAMVGPGLMLWAPREYELFRLMDNSLAEDLLWSYLQRAPVAESFIWRRWLYVLWDEVAQLVNTGRFSRRNFDLASKSLLPWLA [P0AB03]"
group_label = 0.0


For this sequence, is measured total protein half-life in vivo 5 h or higher? MSWQEKINAALDARRAADALRRRYPVAQGAGRWLVADDRQYLNFSSNDYLGLSHHPQIIRAWQQGAEQFGIGSGGSGHVSGYSVVHQALEEELAEWLGYSRALLFISGFAANQAVIAAMMAKEDRIAADRLSHASLLEAASLSPSQLRRFAHNDVTHLARLLASPCPGQQMVVTEGVFSMDGDSAPLAEIQQVTQQHNGWLMVDDAHGTGVIGEQGRGSCWLQKVKPELLVVTFGKGFGVSGAAVLCSSTVADYLLQFARHLIYSTSMPPAQAQALRASLAVIRSDEGDARREKLAALITRFRAGVQDLPFTLADSCSAIQPLIVGDNSRALQLAEKLRQQGCWVTAIRPPTVPAGTARLRLTLTAAHEMQDIDRLLEVLHGNG
0.0
